The values you see were collected from patent US20070117743A1.

Test system: PANC-1
Run description: SRB colorimetric assay of cell growth and viability, PANC-1
Format: cell-based, human
Applied conditions: 48 hours exposure
Where a SMILES comes first, the peptide text is derived from it. Bridges are numbered along the chain shown (N, C = ends). [ ]: non-standard residue; d: D form. The star is where a group is joined. d(aIle) = CC[C@H](C)[C@@H](N)C(=O)O; d(aThr) = C[C@@H](O)[C@@H](N)C(=O)O; Hexanoyl(5-Me) = CC(C)CCCC(=O)*; Orn = NCCC[C@H](N)C(=O)O; Dhb = C/C=C(\N)C(=O)O
Examples of molecules with documented TGI PANC-1 follow.

>  <Molecule>
C/C=C1\NC(=O)[C@H](Cc2ccccc2)NC(=O)[C@@H](C(C)C)NC(=O)[C@@H]([C@@H](C)CC)NC(=O)[C@H](NC(=O)[C@H](NC(=O)[C@H](CCCN)NC(=O)[C@H]2CCCN2C(=O)[C@H](NC(=O)[C@@H](NC(=O)[C@@H](NC(=O)[C@H](NC(=O)CCCCCCCCCCCCCCCCCCC)C(C)C)[C@@H](C)O)C(C)C)C(C)C)[C@@H](C)CC)[C@@H](C)OC(=O)[C@H](C(C)C)NC1=O [Compound 13, [Icos^14]-KF]

>  <TGI PANC-1, Molar>
5.48E−06

$$$$
>  <Molecule>
C/C=C1\NC(=O)[C@H](Cc2ccccc2)NC(=O)[C@@H](C(C)C)NC(=O)[C@@H]([C@@H](C)CC)NC(=O)[C@H](NC(=O)[C@H](NC(=O)[C@H](CCCN)NC(=O)[C@H]2CCCN2C(=O)[C@H](NC(=O)[C@H](CCC(N)=O)NC(=O)[C@@H](NC(=O)[C@H](NC(=O)CCCC(C)C)C(C)C)[C@@H](C)O)C(C)C)[C@@H](C)CC)[C@@H](C)OC(=O)[C@H](C(C)C)NC1=O [Compound 48, [Gln^11]-KF] ({Hexanoyl(5-Me)}-[dV]TQ[dV][dP][Orn][d(aIle)][d(aThr)][d(aIle)][dV]F[Dhb]V; ester 8-C)

>  <TGI PANC-1, Molar>
6.64E−06

$$$$
>  <Molecule>
C/C=C1\NC(=O)[C@H](Cc2ccccc2)NC(=O)[C@@H](C(C)C)NC(=O)[C@@H]([C@@H](C)CC)NC(=O)[C@H](NC(=O)[C@H](NC(=O)[C@H](CCCN)NC(=O)[C@H]2CCCN2C(=O)[C@H](NC(=O)[C@@H](NC(=O)[C@@H]2CCCN2C(=O)CCCC(C)C)C(C)C)C(C)C)[C@@H](C)CC)[C@@H](C)OC(=O)[C@H](C(C)C)NC1=O [Compound 55, [Pro^12, noD-Val^13]-KF] ({Hexanoyl(5-Me)}-PV[dV][dP][Orn][d(aIle)][d(aThr)][d(aIle)][dV]F[Dhb]V; ester 7-C)

>  <TGI PANC-1, Molar>
7.27E−06

$$$$
>  <Molecule>
C/C=C1\NC(=O)[C@H](Cc2ccccc2)NC(=O)[C@@H](C(C)C)NC(=O)[C@@H]([C@@H](C)CC)NC(=O)[C@H](NC(=O)[C@H](NC(=O)[C@H](CCCN)NC(=O)[C@H]2CCCN2C(=O)[C@H](NC(=O)[C@@H](NC(=O)[C@@H](NC(=O)[C@@H](CC(C)C)NC(=O)CCCC(C)C)[C@@H](C)O)C(C)C)C(C)C)[C@@H](C)CC)[C@@H](C)OC(=O)[C@H](C(C)C)NC1=O [Compound 35, [D-Leu^13]-KF]

>  <TGI PANC-1, Molar>
1.87E−06

$$$$
>  <Molecule>
C/C=C1\NC(=O)[C@H](Cc2ccccc2)NC(=O)[C@@H](C(C)C)NC(=O)[C@@H]([C@@H](C)CC)NC(=O)[C@H](NC(=O)[C@H](NC(=O)[C@H](CCCN)NC(=O)[C@H]2CCCN2C(=O)[C@H](NC(=O)[C@H](C)NC(=O)[C@@H](NC(=O)[C@H](NC(=O)CCCC(C)C)C(C)C)[C@@H](C)O)C(C)C)[C@@H](C)CC)[C@@H](C)OC(=O)[C@H](C(C)C)NC1=O [Compound 44, [Ala^11]-KF] ({Hexanoyl(5-Me)}-[dV]TA[dV][dP][Orn][d(aIle)][d(aThr)][d(aIle)][dV]F[Dhb]V; ester 8-C)

>  <TGI PANC-1, Molar>
6.90E−06

$$$$
